Data provenance: ChEMBL document CHEMBL1201862

- Tested on: BT-549
- assay explanation: NCI tumour cell line growth inhibition, 48 h
Active and inactive are the calls of the source. Cut-off read from the data, not from the text of the source: active = GI50 up to about 1.1 µM and inactive = higher.
A collection of compounds and their measured GI50

Exercise: Indicate the recorded GI50 value for this compound: "[O-]/[N+](=N\c1ccccc1CO)c1ccccc1CO"
Key: > 100 µM (inactive)

Exercise: Indicate the recorded GI50 value for this compound: "CC(C)(C)c1ccc(-n2c3nc(=O)n(-c4ccccc4C(F)(F)F)c(=O)c-3cc3ccccc32)cc1"
Key: 24 µM (inactive)

Exercise: Indicate the recorded GI50 value for this compound: "Clc1cc2c(c(CSC3=NCN(CC4CC4)CN3)c1)OCOC2"
Key: 19.1 µM (inactive)

Exercise: Indicate the recorded GI50 value for this compound: "COc1cc(OC)cc(N(C)Cc2cnc3nc(N)nc(N)c3c2C)c1"
Key: > 25.7 µM (inactive)

Exercise: Indicate the recorded GI50 value for this compound: "COc1ccc(OC)c([N+](=O)[O-])c1-c1nc2sc(C)cn2c1/C=N/N=C(N)N"
Key: 15.2 µM (inactive)
